In this section, each of the molecules is paired with its reported Difference.
Test system: NCI-H292 lung cancer cells
Test: FDA drug screening, complete media vs cholesterol-free media with simvastatin (TABLE 2)
Format: cell-based, human
Conditions: complete media vs cholesterol-free media + simvastatin (0.04 μM); […]
Where a name gives a salt, the structure may show the parent alone.

molecule	Difference
CC1=C2[C@H]3OC(=O)[C@@H](C)[C@@H]3CC[C@@]2(C)C=CC1=O	−0.23
Cc1cc(NS(=O)(=O)c2ccc(N)cc2)nc(C)n1	−0.36
COC1=C[C@@H]2[C@@H]3Cc4ccc(OC)c(O)c4[C@]2(CCN3C)CC1=O [Sinomenine hydrochloride]	−0.22
COc1ccc(C(CN(C)C)C2(O)CCCCC2)cc1 (stereo not drawn) [Venlafaxine (hydrochloride)]	−0.53
CN[C@H]1C(=O)N[C@@H]2Cc3ccc(cc3)Oc3cc4cc(c3O[C@@H]3O[C@H](C(=O)O)[C@@H](O)[C@H](O)[C@H]3NC(=O)CCCCCCCCC(C)C)Oc3ccc(cc3Cl)[C@@H](O)[C@@H]3NC(=O)[C@H](NC(=O)[C@@H]4NC(=O)[C@@H](NC2=O)c2cc(cc(O)c2Cl)Oc2cc1ccc2O)c1ccc(O)c(c1)-c1c(O[C@H]2O[C@H](CO)[C@@H](O)[C@H](O)[C@@H]2O)cc(O)cc1[C@@H](C(=O)NCCCN(C)C)NC3=O [Dalbavancin (hydrochloride)]	−0.18
CC(=O)OCC1=C(C(=O)O)N2C(=O)[C@@H](NC(=O)CSC(=NC(C)C)NC(C)C)[C@H]2SC1	−0.08
